B1: Caulobacter ParB omega fusion; a variant is named by its letters at X, in order, B8GW30 (parent)
chain: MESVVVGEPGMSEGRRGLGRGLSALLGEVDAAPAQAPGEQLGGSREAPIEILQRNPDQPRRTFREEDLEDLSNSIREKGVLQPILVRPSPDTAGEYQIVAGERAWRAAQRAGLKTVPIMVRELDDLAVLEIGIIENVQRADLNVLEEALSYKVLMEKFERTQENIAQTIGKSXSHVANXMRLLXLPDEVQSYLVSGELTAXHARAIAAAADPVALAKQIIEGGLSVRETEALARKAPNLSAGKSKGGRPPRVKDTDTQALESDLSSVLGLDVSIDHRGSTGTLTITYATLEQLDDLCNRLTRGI

variants of: B1; assay: one-hybrid fitness for binding parS DNA (scaled: cognate 1, non-cognate 0); higher = stronger binding; conditions: with parS DNA site
Whole data set: some 81,000 sequences, median “one-hybrid fitness for binding parS DNA” near -0.17, cut for the highest 2% near 0.51. Shown is part of a subset that was picked to be rich in the highest values.
metric: one-hybrid fitness for binding parS DNA
Reply with the value as a number alone.

So, RMGP ? Its one-hybrid fitness for binding parS DNA was 0.235

The variant listed as RAGN has a reported one-hybrid fitness for binding parS DNA of 0.448

Summary for this variant, RKIA : one-hybrid fitness for binding parS DNA is 0.451

Summary for this variant, RFGS : one-hybrid fitness for binding parS DNA is 0.969
